targetUnderTest: Protein Tat (Human immunodeficiency virus type 1 group M subtype B (isolate HXB2)) (UniProt P04608)
Sequence (P04608 whole entry, looked up): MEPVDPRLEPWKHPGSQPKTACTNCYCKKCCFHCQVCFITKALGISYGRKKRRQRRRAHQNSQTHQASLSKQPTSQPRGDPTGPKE
procedureDetails: inhibitors of Tat binding to TAR RNA, dose response, counter-screen for Vif-APOBEC3G degradation inhibitor project, biochemical, fluorescence polarization, FAM-labeled TAR RNA (AID 1117361)
metricName: IC50

// below: answered compounds
Which IC50 value is on record for `CC1(C)OC(=O)C(=C2CCCN2)C(=O)O1` ?
0.882 µM

Which IC50 value is on record for COc1ccc(C2=CC(c3ccc(Cl)cc3)n3cnnc3N2)cc1OC (stereo unspecified) ?
6.19 µM

Which IC50 value is on record for `N#Cc1c(-c2ccco2)cc(-c2ccccc2)[nH]c1=O` ?
5 µM

---
Which IC50 value is on record for `CC(=O)NN1C(=O)/C(=C\c2ccc(Br)o2)SC1=S` ?
4.82 µM

Which IC50 value is on record for `Cc1ccc(NC(=O)COc2ccc(/C=N/NC(=O)CSCc3ccccc3)cc2)cc1` ?
16.3 µM

Which IC50 value is on record for `CCN(CC)c1ccc(NC(=O)CCS(=O)(=O)c2ccc(Br)cc2)c(C)c1` ?
46.5 µM
